Test system: HeLa Kyoto
assay_summary: solubility change mitosis vs G1/S (difference of NP-40 vs SDS log2 ratios) (log2 ratio difference); higher = more soluble in mitosis
value_kind: solubility change mitosis (log2)
Write the value as a bare number.

Here are 2 sequences together with their reported answers.
MSYMLPHLHNGWQVDQAILSEEDRVVVIRFGHDWDPTCMKMDEVLYSIAEKVKNFAVIYLVDITEVPDFNKMYELYDPCTVMFFFRNKHIMIDLGTGNNNKINWAMEDKQEMVDIIETVYRGARKGRGLVVSPKDYSTKYRY [TXNL4A] ... 0.224
MAVELGVLLVRPRPGTGLGRVMRTLLLVLWLATRGSALYFHIGETEKKCFIEEIPDETMVIGNYRTQLYDKQREEYQPATPGLGMFVEVKDPEDKVILARQYGSEGRFTFTSHTPGEHQICLHSNSTKFSLFAGGMLRVHLDIQVGEHANDYAEIAAKDKLSELQLRVRQLVEQVEQIQKEQNYQRWREERFRQTSESTNQRVLWWSILQTLILVAIGVWQMRHLKSFFEAKKLV [TMED9] ... 0.0692

Now examine the next entry.
I'd like to know its solubility change mitosis (log2). The sequence in question is MEDLEEDVRFIVDETLDFGGLSPSDSREEEDITVLVTPEKPLRRGLSHRSDPNAVAPAPQGVRLSLGPLSPEKLEEILDEANRLAAQLEQCALQDRESAGEGLGPRRVKPSPRRETFVLKDSPVRDLLPTVNSLTRSTPSPSSLTPRLRSNDRKGSVRALRATSGKRPSNMKRESPTCNLFPASKSPASSPLTRSTPPVRGRAGPSGRAAASEETRAAKLRVSGSGEFVGLTLKFLHPSPPGPPTPIRSVLAPQPSTSNSQRLPRPQGAAAKSSSQLPIPSAIPRPASRMPLTSRSVPPGRGALPPDSLSTRKGLPRPSTAGHRVRESGHKVPVSQRLNLPVMGATRSNLQPPRKVAVPGPTR [PSRC1] 0.803

* * *

solubility change mitosis (log2) reference
Test system: HeLa Kyoto
assay_summary: solubility change mitosis vs G1/S (difference of NP-40 vs SDS log2 ratios) (log2 ratio difference); higher = more soluble in mitosis
# print the numeric value only

MATSVLCCLRCCRDGGTGHIPLKEMPAVQLDTQHMGTDVVIVKNGRRICGTGGCLASAPLHQNKSYFEFKIQSTGIWGIGVATQKVNLNQIPLGRDMHSLVMRNDGALYHNNEEKNRLPANSLPQEGDVVGITYDHVELNVYLNGKNMHCPASGIRGTVYPVVYVDDSAILDCQFSEFYHTPPPGFEKILFEQQIF [SPRYD7] ... -0.19
MASSGAGDPLDSKRGEAPFAQRIDPTREKLTPEQLHSMRQAELAQWQKVLPRRRTRNIVTGLGIGALVLAIYGYTFYSISQERFLDELEDEAKAARARALARASGS [COA3] ... 0.902
MAQYKGAASEAGRAMHLMKKREKQREQMEQMKQRIAEENIMKSNIDKKFSAHYDAVEAELKSSTVGLVTLNDMKAKQEALVKEREKQLAKKEQSKELQMKLEKLREKERKKEAKRKISSLSFTLEEEEEGGEEEEEAAMYEEEMEREEITTKKRKLGKNPDVDTSFLPDRDREEEENRLREELRQEWEAKQEKIKSEEIEITFSYWDGSGHRRTVKMRKGNTMQQFLQKALEILRKDFSELRSAGVEQLMYIKEDLIIPHHHSFYDFIVTKARGKSGPLFNFDVHDDVRLLSDATVEKDESHAGKVVLRSWYEKNKHIFPASRWEPYDPEKKWDKYTIR [FAM50A] ... -0.0697

Data request, read-out solubility change mitosis (log2), for MADPRVRQIKIKTGVVKRLVKEKVMYEKEAKQQEEKIEKMRAEDGENYDIKKQAEILQESRMMIPDCQRRLEAAYLDLQRILENEKDLEEAEEYKEARLVLDSVKLEA [TBCA] 0.298

* * *

System: HeLa Kyoto
assay_summary: solubility in G1/S (NP-40 vs SDS abundance) (log2 ratio); higher = more soluble
stated_conditions: cell cycle stage: G1/S
value_kind: solubility in G1/S (log2)

Which solubility in G1/S (log2) is listed for MSRYLLPLSALGTVAGAAVLLKDYVTGGACPSKATIPGKTVIVTGANTGIGKQTALELARRGGNIILACRDMEKCEAAAKDIRGETLNHHVNARHLDLASLKSIREFAAKIIEEEERVDILINNAGVMRCPHWTTEDGFEMQFGVNHLGHFLLTNLLLDKLKASAPSRIINLSSLAHVAGHIDFDDLNWQTRKYNTKAAYCQSKLAIVLFTKELSRRLQGSGVTVNALHPGVARTELGRHTGIHGSTFSSTTLGPIFWLLVKSPELAAQPSTYLAVAEELADVSGKYFDGLKQKAPAPEAEDEEVARRLWAESARLVGLEAPSVREQPLPR [RDH13] ? 0.415

* * *

System: HeLa Kyoto
assay_summary: solubility in G1/S (NP-40 vs SDS abundance) (log2 ratio); higher = more soluble
stated_conditions: cell cycle stage: G1/S
Returns True if the recorded solubility in G1/S (log2) is greater than or equal to 0.2, and False otherwise.

Solved cases (8 shown):
MQAEGRGTGGSTGDADGPGGPGIPDGPGGNAGGPGEAGATGGRGPRGAGAARASGPRGGAPRGPHGGAASAQDGRCPCGARRPDSRLLELHITMPFSSPMEAELVRRILSRDAAPLPRPGAVLKDFTVSGNLLFMSVRDQDREGAGRMRVVGWGLGSASPEGQKARDLRTPKHKVSEQRPGTPGPPPPEGAQGDGCRGVAFNVMFSAPHI [CTAG2] ... True
MARGGDTGCTGPSETSASGAAAIALPGLEGPATDAQCQTLPLTVLKSRSPSPRSLPPALSCPPPQPAMLEHLSSLPTQMDYKGQKLAEQMFQGIILFSAIVGFIYGYVAEQFGWTVYIVMAGFAFSCLLTLPPWPIYRRHPLKWLPVQESSTDDKKPGERKIKRHAKNN [SPCS1] ... False
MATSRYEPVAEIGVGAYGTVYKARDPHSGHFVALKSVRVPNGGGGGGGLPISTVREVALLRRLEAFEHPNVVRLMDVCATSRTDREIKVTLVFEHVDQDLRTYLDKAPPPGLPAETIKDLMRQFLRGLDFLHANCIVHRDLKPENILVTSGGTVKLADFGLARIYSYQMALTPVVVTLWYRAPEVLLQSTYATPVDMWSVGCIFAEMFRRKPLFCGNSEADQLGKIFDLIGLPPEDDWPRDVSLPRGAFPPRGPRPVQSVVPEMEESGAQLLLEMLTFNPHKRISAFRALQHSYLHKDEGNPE [CDK4] ... True
MEAPPVTMMPVTGGTINMMEYLLQGSVLDHSLESLIHRLRGLCDNMEPETFLDHEMVFLLKGQQASPFVLRARRSMDRAGAPWHLRYLGQPEMGDKNRHALVRNCVDIATSENLTDFLMEMGFRMDHEFVAKGHLFRKGIMKIMVYKIFRILVPGNTDSTEALSLSYLVELSVVAPAGQDMVSDDMKNFAEQLKPLVHLEKIDPKRLM [MED18] ... True
MSEEQFGGDGAAAAATAAVGGSAGEQEGAMVAATQGAAAAAGSGAGTGGGTASGGTEGGSAESEGAKIDASKNEEDEGHSNSSPRHSEAATAQREEWKMFIGGLSWDTTKKDLKDYFSKFGEVVDCTLKLDPITGRSRGFGFVLFKESESVDKVMDQKEHKLNGKVIDPKRAKAMKTKEPVKKIFVGGLSPDTPEEKIREYFGGFGEVESIELPMDNKTNKRRGFCFITFKEEEPVKKIMEKKYHNVGLSKCEIKVAMSKEQYQQQQQWGSRGGFAGRARGRGGGPSQNWNQGYSNYWNQGYGNYGYNSQGYGGYGGYDYTGYNNYYGYGDYSNQQSGYGKVSRRGGHQNSYKPY [HNRNPD] ... False
MESPASSQPASMPQSKGKSKRKKDLRISCMSKPPAPNPTPPRNLDSRTFITIGDRNFEVEADDLVTISELGRGAYGVVEKVRHAQSGTIMAVKRIRATVNSQEQKRLLMDLDINMRTVDCFYTVTFYGALFREGDVWICMELMDTSLDKFYRKVLDKNMTIPEDILGEIAVSIVRALEHLHSKLSVIHRDVKPSNVLINKEGHVKMCDFGISGYLVDSVAKTMDAGCKPYMAPERINPELNQKGYNVKSDVWSLGITMIEMAILRFPYESWGTPFQQLKQVVEEPSPQLPADRFSPEFVDFTAQCLRKNPAERMSYLELMEHPFFTLHKTKKTDIAAFVKEILGEDS [MAP2K3] ... False
MDGKQGGMDGSKPAGPRDFPGIRLLSNPLMGDAVSDWSPMHEAAIHGHQLSLRNLISQGWAVNIITADHVSPLHEACLGGHLSCVKILLKHGAQVNGVTADWHTPLFNACVSGSWDCVNLLLQHGASVQPESDLASPIHEAARRGHVECVNSLIAYGGNIDHKISHLGTPLYLACENQQRACVKKLLESGADVNQGKGQDSPLHAVARTASEELACLLMDFGADTQAKNAEGKRPVELVPPESPLAQLFLEREGPPSLMQLCRLRIRKCFGIQQHHKITKLVLPEDLKQFLLHL [ASB9] ... True
MTFQFNFTIEDHLENELTPIRDGALTLDSSKELSVSESQKGEERDRKCSAEQFDLPQDHLWEHKSMENAAPSQDTDSPLSAASSSRNLEPHGKQPSLRAAKEHAMPKDLKKMLENKVIETLPGFQHVKLSVVKTILLKENFPGENIVSKSFSSHSDLITGVYEGGLKIWECTFDLLAYFTKAKVKFAGKKVLDLGCGSGLLGITAFKGGSKEIHFQDYNSMVIDEVTLPNVVANSTLEDEENDVNEPDVKRCRKPKVTQLYKCRFFSGEWSEFCKLVLSSEKLFVKYDLILTSETIYNPDYYSNLHQTFLRLLSKNGRVLLASKAHYFGVGGGVHLFQKFVEERDVFKTRILKIIDEGLKRFIIEITFKFPG [METTL18] ... False

Quick check, solubility in G1/S (log2) >= 0.2? MVCGGFACSKNCLCALNLLYTLVSLLLIGIAAWGIGFGLISSLRVVGVVIAVGIFLFLIALVGLIGAVKHHQVLLFFYMIILLLVFIVQFSVSCACLALNQEQQGQLLEVGWNNTASARNDIQRNLNCCGFRSVNPNDTCLASCVKSDHSCSPCAPIIGEYAGEVLRFVGGIGLFFSFTEILGVWLTYRYRNQKDPRANPSAFL [TSPAN13] False

Exam item: decide whether the reported solubility in G1/S (log2) for MAAGAAEAAVAAVEEVGSAGQFEELLRLKAKSLLVVHFWAPWAPQCAQMNEVMAELAKELPQVSFVKLEAEGVPEVSEKYEISSVPTFLFFKNSQKIDRLDGAHAPELTKKVQRHASSGSFLPSANEHLKEDLNLRLKKLTHAAPCMLFMKGTPQEPRCGFSKQMVEILHKHNIQFSSFDIFSDEEVRQGLKAYSSWPTYPQLYVSGELIGGLDIIKELEASEELDTICPKAPKLEERLKVLTNKASVMLFMKGNKQEAKCGFSKQILEILNSTGVEYETFDILEDEEVRQGLKAYSNWPTYPQLYVKGELVGGLDIVKELKENGELLPILRGEN [GLRX3] is at least 0.2. True

Textbook exercise: given the entry MDLLFGRRKTPEELLRQNQRALNRAMRELDRERQKLETQEKKIIADIKKMAKQGQMDAVRIMAKDLVRTRRYVRKFVLMRANIQAVSLKIQTLKSNNSMAQAMKGVTKAMGTMNRQLKLPQIQKIMMEFERQAEIMDMKEEMMNDAIDDAMGDEEDEEESDAVVSQVLDELGLSLTDELSNLPSTGGSLSVAAGGKKAEAAASALADADADLEERLKNLRRD [CHMP2A] , state whether its solubility in G1/S (log2) is greater than or equal to 0.2. True
